assay: chemical genetic growth profiling, strain panel (AID 1159580);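 also: tested at 20 µM; growth read once vehicle control cultures reached saturation at 30 °C; 1 = growth at the plate median or of vehicle wells; lower values mean less growth of the strain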; settings: S. cerevisiae deletion strains, growth OD, locus YHR087W, strain rtc3, hits give low values
Screen size: about 5,500 compounds; about 2,000 (36%) were called active. About 18% were inconclusive and are not listed. This is one part of the list.
outcome-measure: normalized growth
One number for each entry.

# example entries with known answers
{"record-smiles": "Cc1ccc(S(=O)(=O)Nc2ccc(C)c([N+](=O)[O-])c2)cc1", "normalized growth": 1.02}
{"record-smiles": "COc1cc(CC/C(C)=N/O)ccc1OCc1ccc(Cl)cc1Cl", "normalized growth": 0.935}
{"record-smiles": "O=S(=O)(Nc1ccc(Oc2ccc(Cl)cc2)cc1)c1ccccc1", "normalized growth": 0.866}
{"record-smiles": "O=C(Nc1ccccc1)Nc1ccc(C(F)(F)F)cc1Br", "normalized growth": 0.941}
{"record-smiles": "CCC(=O)c1c(C)c(C)c(C)c(C)c1C", "normalized growth": 0.959}

Could you tell me which normalized growth is on file for `Cc1c(S(=O)(=O)c2ccc(Cl)cc2)csc1S(=O)(=O)N/N=C\c1c(Cl)cccc1Cl` ? 0.998

###

Provide the reported normalized growth of each item.
assay: chemical genetic growth profiling, strain panel (AID 1159580);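 also: tested at 20 µM; growth read once vehicle control cultures reached saturation at 30 °C; 1 = growth at the plate median or of vehicle wells; lower values mean less growth of the strain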; settings: S. cerevisiae deletion strains, growth OD, locus YCL069W, strain vba3, hits give low values
Out of some 5,500 compounds screened, about 2,000 (36%) were called active. Inconclusive results (about 18%) are left out. Some of the results follow.

{"compound": "COc1c2ccoc2nc2c(OC)c(OCC(O)C(C)(C)O)ccc12 (centres undefined)", "reported": "1.01 (inactive)"}
{"compound": "O=C(O)CCC(=O)Nc1ccc(S(=O)(=O)Nc2nccs2)cc1", "reported": "1 (inactive)"}
{"compound": "CC1=C2[C@H]3OC(=O)[C@@H](C)[C@@H]3CC[C@@]2(C)C=CC1=O", "reported": "0.967 (inactive)"}
{"compound": "CNCCCN1c2ccccc2CCc2ccccc21", "reported": "1.02 (inactive)"}
{"compound": "CC(CN(C)C)CN1c2ccccc2Sc2ccccc21 (centres undefined)", "reported": "1.02 (inactive)"}

Quick one: give me normalized growth for each item below, same order please.
1. C[C@@H]1CC2C3CCC4=CC(=O)C=C[C@]4(C)[C@@]3(F)[C@@H](O)C[C@]2(C)[C@H]1C(=O)CO (some centres undefined)
2. CCN(CCCc1ccccc1)CCCc1ccccc1
3. COc1cc(OC)c(OC)cc1C=O

1 (inactive)
0.985 (inactive)
0.999 (inactive)

# lookup: normalized growth of `CCC(=O)Nc1ccc(Cl)c(Cl)c1` 0.996 (inactive)

###

assay: chemical genetic growth profiling, strain panel (AID 1159580);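 also: tested at 20 µM; growth read once vehicle control cultures reached saturation at 30 °C; 1 = growth at the plate median or of vehicle wells; lower values mean less growth of the strain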; conditions: S. cerevisiae deletion strains, growth OD, locus YDR159W, strain sac3, hits give low values
Among all 5,500 compounds or so, about 2,000 (36%) were called active. Inconclusive results (about 18%) are left out. Some of the results follow.
outcome-measure: normalized growth
Give bare numbers.

Check out these entries, answers already filled in.
{"compound": "CC(=O)Nc1nnc(S(N)(=O)=O)s1", "normalized growth": 0.99}
{"compound": "CC(=O)OCC(=O)[C@@]1(O)[C@H](OC(C)=O)CC2C3CCC4=CC(=O)C=C[C@]4(C)[C@@]3(F)[C@@H](O)C[C@@]21C (stereo partly drawn)", "normalized growth": 0.923}

API: the following record is the query input.
What does the record list as normalized growth for CC(CCC(=O)O)[C@H]1CCC2C3CC[C@@H]4C[C@H](O)CC[C@]4(C)C3C[C@H](O)[C@@]21C (stereo partly drawn) ? 0.963
